# Tested on: NCI-H1734
# test summary: relative viability (nuclei count vs DMSO), 5 days (fraction); higher = more cells survive
# measurement conditions: first compound 0.003162 µM
Param label: returns true (1) when relative viability < 0.7, returns false (0) otherwise, including exact equality.

INSERT INTO results (compound, assigned_label) VALUES
  ('Cc1cn(-c2cc(NC(=O)c3ccc(C)c(Nc4nccc(-c5cccnc5)n4)c3)cc(C(F)(F)F)c2)cn1 [Nilotinib] + O=C(c1cc(Cc2n[nH]c(=O)c3ccccc23)ccc1F)N1CCN(C(=O)C2CC2)CC1 [Olaparib] (partner 8 µM)', 'true (1)'),
  ('Cc1cn(-c2cc(NC(=O)c3ccc(C)c(Nc4nccc(-c5cccnc5)n4)c3)cc(C(F)(F)F)c2)cn1 [Nilotinib] + CC1(C)CCC(c2ccc(Cl)cc2)=C(CN2CCN(c3ccc(C(=O)NS(=O)(=O)c4ccc(N[C@H](CCN5CCOCC5)CSc5ccccc5)c(S(=O)(=O)C(F)(F)F)c4)cc3)CC2)C1 [Navitoclax] (partner 0.5 µM)', 'false (0)'),
  ('Cc1cn(-c2cc(NC(=O)c3ccc(C)c(Nc4nccc(-c5cccnc5)n4)c3)cc(C(F)(F)F)c2)cn1 [Nilotinib] + Cc1cc(Nc2cc(N3CCN(C)CC3)nc(Sc3ccc(NC(=O)C4CC4)cc3)n2)n[nH]1 [Tozasertib] (partner 0.1 µM)', 'true (1)'),
  ('Cc1cn(-c2cc(NC(=O)c3ccc(C)c(Nc4nccc(-c5cccnc5)n4)c3)cc(C(F)(F)F)c2)cn1 [Nilotinib] + Nc1nc2[nH]cc(CCc3ccc(C(=O)N[C@@H](CCC(=O)O)C(=O)O)cc3)c2c(=O)[nH]1 [Pemetrexed] (partner 0.2 µM)', 'true (1)'),
  ('Cc1cn(-c2cc(NC(=O)c3ccc(C)c(Nc4nccc(-c5cccnc5)n4)c3)cc(C(F)(F)F)c2)cn1 [Nilotinib] + C[C@]1(O)C[C@@H](c2nc(-c3ccc4ccc(-c5ccccc5)nc4c3)c3c(N)nccn32)C1 [Linsitinib] (partner 1 µM)', 'false (0)'),
  ('Cc1cn(-c2cc(NC(=O)c3ccc(C)c(Nc4nccc(-c5cccnc5)n4)c3)cc(C(F)(F)F)c2)cn1 [Nilotinib] + CCNC(=O)c1noc(-c2cc(C(C)C)c(O)cc2O)c1-c1ccc(CN2CCOCC2)cc1 [Luminespib] (partner 0.01 µM)', 'true (1)'),
  ('Cc1cn(-c2cc(NC(=O)c3ccc(C)c(Nc4nccc(-c5cccnc5)n4)c3)cc(C(F)(F)F)c2)cn1 [Nilotinib] + CC(=O)Nc1cccc(-n2c(=O)n(C3CC3)c(=O)c3c(Nc4ccc(I)cc4F)n(C)c(=O)c(C)c32)c1 [Trametinib] (partner 0.02 µM)', 'true (1)');

====

# System: A-427
# test summary: relative viability (nuclei count vs DMSO), 5 days (fraction); higher = more cells survive
# measurement conditions: first compound 0.6325 µM
recorded endpoint: relative viability

INSERT INTO assay_data (compound, measured_value) VALUES
  ('CN1CCN(CCOc2cc(OC3CCOCC3)c3c(Nc4c(Cl)ccc5c4OCO5)ncnc3c2)CC1 [Saracatinib] + C[C@@H](Oc1cc(-c2cnn(C3CCNCC3)c2)cnc1N)c1c(Cl)ccc(F)c1Cl [Crizotinib] (partner 1 µM)', 0.837),
  ('Cc1csc(=NC2CCCCC2)n1/N=C/c1ccc(O)c(O)c1O [MIM1] + CC1(C)CCC(c2ccc(Cl)cc2)=C(CN2CCN(c3ccc(C(=O)NS(=O)(=O)c4ccc(N[C@H](CCN5CCOCC5)CSc5ccccc5)c(S(=O)(=O)C(F)(F)F)c4)cc3)CC2)C1 [Navitoclax] (partner 0.5 µM)', 1.02),
  ('Cc1csc(=NC2CCCCC2)n1/N=C/c1ccc(O)c(O)c1O [MIM1] + C[C@@H](Oc1cc(-c2cnn(C3CCNCC3)c2)cnc1N)c1c(Cl)ccc(F)c1Cl [Crizotinib] (partner 1 µM)', 0.731),
  ('CN1CCN(CCOc2cc(OC3CCOCC3)c3c(Nc4c(Cl)ccc5c4OCO5)ncnc3c2)CC1 [Saracatinib] + COc1cc2c(Oc3ccc(NC(=O)C4(C(=O)Nc5ccc(F)cc5)CC4)cc3F)ccnc2cc1OCCCN1CCOCC1 [Foretinib] (partner 0.25 µM)', 1.07);
